This collection of values is drawn from patent US20160257732A1.

Target: HA of ca A/Wuhan/359/95 (H3N2) (influenza A virus)
Assay: cell-based or functional assay
Collected Neutralization IC50, H3-WH95-OR values appear next to each entry.
Please answer using a numeric value trailed by its unit.

Item under review: Antibody 11 (antibody, V domains shown) VH: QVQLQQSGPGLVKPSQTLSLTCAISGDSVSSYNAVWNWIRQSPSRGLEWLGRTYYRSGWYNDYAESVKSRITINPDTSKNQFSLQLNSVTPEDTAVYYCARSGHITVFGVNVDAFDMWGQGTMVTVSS VL: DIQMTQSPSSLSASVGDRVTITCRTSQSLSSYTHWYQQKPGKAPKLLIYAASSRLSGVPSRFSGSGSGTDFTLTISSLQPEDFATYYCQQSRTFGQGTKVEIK . Reported Neutralization IC50, H3-WH95-OR?
2.26 µg/mL

Another binder: Antibody 13 (antibody, V domains shown) VH: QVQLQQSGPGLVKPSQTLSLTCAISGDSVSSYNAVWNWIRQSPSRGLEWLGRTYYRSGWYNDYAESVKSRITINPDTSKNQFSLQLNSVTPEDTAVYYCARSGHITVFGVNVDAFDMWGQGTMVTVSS VL: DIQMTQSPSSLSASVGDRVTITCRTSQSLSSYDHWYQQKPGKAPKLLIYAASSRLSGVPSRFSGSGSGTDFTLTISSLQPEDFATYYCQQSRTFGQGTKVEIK
3.01 µg/mL

Now consider a different binder.
Item under review: Antibody 14 (antibody, V domains shown) VH: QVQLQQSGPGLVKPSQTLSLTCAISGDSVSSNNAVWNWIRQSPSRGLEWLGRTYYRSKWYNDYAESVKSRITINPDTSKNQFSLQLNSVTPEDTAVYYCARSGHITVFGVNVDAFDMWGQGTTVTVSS VL: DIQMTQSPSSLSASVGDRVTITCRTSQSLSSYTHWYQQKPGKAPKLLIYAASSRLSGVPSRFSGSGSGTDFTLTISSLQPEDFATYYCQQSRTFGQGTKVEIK . Reported Neutralization IC50, H3-WH95-OR?
3.09 µg/mL
